Biological target: T1, GIP receptor (GIPR) (UniProt P48546 22-466, limits assumed)
T1 sequence (looked up): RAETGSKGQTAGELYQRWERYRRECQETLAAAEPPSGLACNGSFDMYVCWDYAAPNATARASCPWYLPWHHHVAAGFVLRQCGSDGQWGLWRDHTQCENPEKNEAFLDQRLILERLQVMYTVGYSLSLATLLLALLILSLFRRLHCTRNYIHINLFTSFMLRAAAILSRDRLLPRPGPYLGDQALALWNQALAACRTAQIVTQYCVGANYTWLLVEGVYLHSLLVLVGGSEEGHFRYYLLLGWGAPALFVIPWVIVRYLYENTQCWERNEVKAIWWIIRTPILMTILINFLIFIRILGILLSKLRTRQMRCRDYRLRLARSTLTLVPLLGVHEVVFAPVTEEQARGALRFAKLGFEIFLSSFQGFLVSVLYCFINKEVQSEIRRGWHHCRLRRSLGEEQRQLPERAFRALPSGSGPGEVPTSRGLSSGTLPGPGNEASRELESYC
Assay: cell-based or functional assay
Bridge positions count the residues as written; N and C are the ends. Square brackets hold non-standard residues; d marks the D form. Ends that are not written are not given here. stapled body chem0209 = not defined here; αMeL = CC(C)C[C@](C)(N)C(=O)O; Aib = CC(C)(N)C(=O)O
Listing: GIP-1 EC50 (nM); cAMP, agonistic activity of selected binders
Answer format: numeric, nM implied, no suffix.

Illustrative cases are given below, each with its answer.
Asked: Field request: GIP-1 EC50 (nM); cAMP, agonistic activity | item: Y[Aib]QGTFTSDYSI[αMeL]LDKKAQ[Aib]KFIEFLIEGGPSSGAPPPS-NH2 (linker 17-21 via Ida, Lys, Lys, γGlu, C20 diacid) [Example 23]
Given back: 0.0004

Asked: Field request: GIP-1 EC50 (nM); cAMP, agonistic activity | item: Y[Aib]QGTFTSDYSI[αMeL]KDKKAQ[Aib]AFIEYLLKGGPSSGAPPPS-NH2 (linker 14-17 via (2-2-oxoethyl)‑glycine, AEEA, γGlu, C20 diacid) [Example 38]
Given back: 0.0002

Asked: Field request: GIP-1 EC50 (nM); cAMP, agonistic activity | item: Y[Aib]QGTFTSDYSI[αMeL]LDKKAQ[Aib]AFIKYLLEGGPSSGAPPPS-NH2 (linker 17-24 via stapled body chem0209; reading uncertain; also: further groups not given here) [Example 11]
Given back: 0.0003

Continue with the next binder.
Asked: Field request: GIP-1 EC50 (nM); cAMP, agonistic activity | item: Y[Aib]QGTFTSDYSI[αMeL]LDKKAQ[Aib]KFIEYLLEGGPSSGAPPPS-NH2 (bridge 17-21) [Example 8]
Given back: 0.0004
